Published pIC50 for Cyclin-dependent kinase 1 (Homo sapiens, UniProt P06493), assembled from different documents, is shown next.
pIC50: −log10 of the molar value.
MEASURE NAME: pIC50

Here's what some known entries look like.
>>> df
                                   compound                               test_target  value_reported
0  CN1CCN(C(=O)c2cc(Nc3ncc4cc(-c5cncn5C)n(C5CCCC5)c4n3)cn2C)CC1  Cyclin-dependent kinase 1 (Homo sapiens, UniProt P06493)            6.70
1    OCCCNc1ncc(-c2cncc(Nc3cccc(Cl)c3)n2)s1  Cyclin-dependent kinase 1 (Homo sapiens, UniProt P06493)            5.09
2  CSc1ncc2c(n1)CCc1cnc(Nc3ccc(C(=O)N(C)CCN(C)C)cc3)nc1-2  Cyclin-dependent kinase 1 (Homo sapiens, UniProt P06493)            5.90
3  COCc1cccc2[nH]c(-c3n[nH]c4ncc(-c5cncc(CN(C)C)c5)cc34)nc12  Cyclin-dependent kinase 1 (Homo sapiens, UniProt P06493)            6.92
4  CC[C@H](CO)Nc1nc(Nc2cccc(Cl)c2)c2ncn(C(C)C)c2n1  Cyclin-dependent kinase 1 (Homo sapiens, UniProt P06493)            6.52

[A] FC(F)(F)c1cnc(Nc2ccc3nc[nH]c3c2)nc1Nc1ccc(Cl)cc1
[B] FC(F)(F)c1cnc(Nc2ccc(Br)cc2)nc1Nc1ccc2[nH]cnc2c1
-- ask Consider A and B . Which of these has its pIC50 at a higher number? Answer by stating the label of the chosen item.
-- reply A

[I] Cc1cc(N2CCCS2(=O)=O)c2oc(-c3ccc(O)cc3)c(O)c(=O)c2c1
[II] Fc1ccc(Nc2nc(Nc3ccc4[nH]cnc4c3)ncc2Br)cc1
[III] CC(C)n1cnc2c(Nc3ccc(Cl)cc3Cl)nc(NCCO)nc21
-- ask List by increasing pIC50. Answer by listing the labels in the requested order.
-- reply III, I, II
(III: 5.57, I: 6.35, II: 8.40)

[A] COc1ccc(CNc2nc(NCCO)nc3c2ncn3C(C)C)cc1
[B] COc1cccc(CNc2[nH]nc3ncnc(Nc4cccc(Cl)c4)c23)c1
[C] CC(C)c1cc(-c2cc(N3C[C@H](O)[C@@H](O)C3)ccc2O)nc(N)n1
-- ask List by increasing pIC50. Answer by listing the labels in the requested order.
-- reply B, A, C

[1] Cc1cc2cc(Nc3ncc(C#N)c(-c4ccccc4)n3)ccc2[nH]1
[2] NC(=O)c1cccc2[nH]c(NC(=O)c3cccc(C(=O)N4CCC(Nc5ncc(I)cn5)CC4)c3)nc12
-- ask Consider 1 and 2 . Which of these has its pIC50 at a higher number? Answer by stating the label of the chosen item.
-- reply 2
